# system name: IL17-RE-IL-17C (Homo sapiens, UniProt Q8NFR9+Q9P0M4)
# Sequence (Q9P0M4 whole entry): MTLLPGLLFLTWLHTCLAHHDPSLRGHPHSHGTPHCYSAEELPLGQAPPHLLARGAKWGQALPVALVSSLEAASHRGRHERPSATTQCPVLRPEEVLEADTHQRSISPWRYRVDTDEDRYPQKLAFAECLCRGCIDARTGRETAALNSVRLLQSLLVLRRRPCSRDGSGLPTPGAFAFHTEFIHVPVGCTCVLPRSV
# Sequence (Q8NFR9 whole entry): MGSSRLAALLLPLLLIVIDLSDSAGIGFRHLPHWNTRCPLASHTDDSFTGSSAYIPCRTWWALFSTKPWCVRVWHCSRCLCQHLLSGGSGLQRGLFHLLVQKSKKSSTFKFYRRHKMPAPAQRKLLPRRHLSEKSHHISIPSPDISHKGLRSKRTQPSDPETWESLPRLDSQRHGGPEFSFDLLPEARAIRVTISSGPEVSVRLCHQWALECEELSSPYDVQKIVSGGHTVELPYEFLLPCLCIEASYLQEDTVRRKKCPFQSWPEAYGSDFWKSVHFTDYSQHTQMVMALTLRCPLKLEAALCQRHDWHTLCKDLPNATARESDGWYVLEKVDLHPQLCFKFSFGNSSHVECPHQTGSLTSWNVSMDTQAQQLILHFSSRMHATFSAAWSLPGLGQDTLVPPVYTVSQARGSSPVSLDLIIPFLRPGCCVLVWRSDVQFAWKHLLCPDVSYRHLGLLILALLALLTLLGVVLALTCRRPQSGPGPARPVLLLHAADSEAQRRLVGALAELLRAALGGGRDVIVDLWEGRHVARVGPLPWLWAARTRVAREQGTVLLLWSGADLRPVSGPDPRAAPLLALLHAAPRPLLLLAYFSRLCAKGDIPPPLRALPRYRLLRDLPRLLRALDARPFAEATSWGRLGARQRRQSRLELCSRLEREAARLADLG
# assay name: Inhibition of IL-17C/IL-17RE interaction (unknown origin) incubated for 1.5 hrs by ELISA method
Positions of bridges follow the written chain, without caps; N, C: chain ends. Residues, ends and D or L forms follow the SMILES beside them.
measurement kind: IC50 (µM)
Quick note: give the figure in µM, leave out the unit.

Some solved cases for reference:
{"compound": "CC[C@H](C)[C@@H]1NC(=O)[C@H](CCCNC(=N)N)NC(=O)[C@H](Cc2ccc(O)cc2)NC(=O)[C@H](Cc2ccc(O)cc2)NC(=O)[C@H](Cc2c[nH]cn2)NC(=O)[C@H](Cc2c[nH]cn2)NC(=O)[C@H](Cc2ccc(O)cc2)NC(=O)CSC[C@@H](C(=O)NCC(N)=O)NC(=O)CNC(=O)[C@H](CC(C)C)NC(=O)[C@H](CCC(=O)O)NC(=O)[C@H](CO)NC(=O)[C@H](Cc2ccc(O)cc2)NC(=O)[C@H](CC(C)C)NC1=O ({CH2CO}-YHHYYRILYSELGCG-NH2; thioether N-14)", "recorded measurement": 1.34}
{"compound": "CC[C@H](C)[C@@H]1NC(=O)[C@H](Cc2c[nH]cn2)NC(=O)[C@H](Cc2ccc(O)cc2)NC(=O)CSC[C@@H](C(=O)NCC(N)=O)NC(=O)CNC(=O)[C@H](CC(C)C)NC(=O)[C@H](CC(=O)O)NC(=O)CNC(=O)[C@H](Cc2ccc(O)cc2)NC(=O)[C@H](CC(C)C)NC(=O)[C@H](CO)NC(=O)[C@H](C)NC(=O)[C@H](Cc2ccc(O)cc2)NC(=O)[C@H](Cc2ccc(O)cc2)NC1=O ({CH2CO}-YHIYYASLYGDLGCG-NH2; thioether N-14)", "recorded measurement": 0.0014}

-- ask Which measured IC50 value corresponds to CC[C@H](C)[C@@H]1NC(=O)[C@H](CCCNC(=N)N)NC(=O)[C@H](Cc2ccc(O)cc2)NC(=O)[C@H](Cc2ccc(O)cc2)NC(=O)[C@H](Cc2c[nH]cn2)NC(=O)[C@H](Cc2c[nH]cn2)NC(=O)[C@H](Cc2ccc(O)cc2)NC(=O)CSC[C@@H](C(=O)NCC(N)=O)NC(=O)CNC(=O)[C@H](CC(C)C)NC(=O)[C@H](CCC(=O)O)NC(=O)CNC(=O)[C@H](Cc2ccc(O)cc2)NC(=O)[C@H](CC(C)C)NC1=O ({CH2CO}-YHHYYRILYGELGCG-NH2; thioether N-14) ?
-- reply 0.166

---

# system name: IL17-RE-IL-17C (Homo sapiens, UniProt Q8NFR9+Q9P0M4)
# assay name: Inhibition of IL-17C/IL-17RE interaction (unknown origin) incubated for 1.5 hrs by ELISA method
# Format: protein-complex assay
pIC50: −log10 of the molar value. Positions of bridges follow the written chain, without caps; N, C: chain ends. Residues, ends and D or L forms follow the SMILES beside them.
Attribute: pIC50

These recorded examples may help you get a feel for the data.
{"compound": "CC[C@H](C)[C@@H]1NC(=O)[C@H](CCCNC(=N)N)NC(=O)[C@H](Cc2ccc(O)cc2)NC(=O)[C@H](Cc2ccc(O)cc2)NC(=O)[C@H](Cc2c[nH]cn2)NC(=O)[C@H](Cc2c[nH]cn2)NC(=O)[C@H](Cc2ccc(O)cc2)NC(=O)CSC[C@@H](C(=O)NCC(N)=O)NC(=O)CNC(=O)[C@H](C)NC(=O)[C@H](CCC(=O)O)NC(=O)CNC(=O)[C@H](Cc2ccc(O)cc2)NC(=O)[C@H](CC(C)C)NC1=O ({CH2CO}-YHHYYRILYGEAGCG-NH2; thioether N-14)", "measurement kind": "pIC50", "recorded measurement": "< 4.52"}
{"compound": "CC[C@H](C)[C@@H]1NC(=O)[C@H](Cc2c[nH]cn2)NC(=O)[C@H](Cc2ccc(O)cc2)NC(=O)CSC[C@@H](C(=O)NCC(N)=O)NC(=O)CNC(=O)[C@H](CC(C)C)NC(=O)[C@H](CCCCN)NC(=O)[C@H](CCC(N)=O)NC(=O)[C@H](Cc2ccc(O)cc2)NC(=O)[C@H]([C@@H](C)CC)NC(=O)[C@H](CCC(N)=O)NC(=O)[C@H](CCCNC(=N)N)NC(=O)[C@H](Cc2ccc(O)cc2)NC(=O)[C@H](Cc2ccc(O)cc2)NC1=O ({CH2CO}-YHIYYRQIYQKLGCG-NH2; thioether N-14)", "measurement kind": "pIC50", "recorded measurement": 6.48}

-- ask Request the reported pIC50 associated with CC[C@H](C)[C@@H]1NC(=O)[C@H](CCCNC(=N)N)NC(=O)[C@H](Cc2ccc(O)cc2)NC(=O)[C@H](Cc2ccc(O)cc2)NC(=O)[C@H](Cc2c[nH]cn2)NC(=O)[C@H](Cc2c[nH]cn2)NC(=O)[C@H](Cc2ccc(O)cc2)NC(=O)CSC[C@@H](C(=O)NCC(N)=O)NC(=O)CNC(=O)[C@H](CC(C)C)NC(=O)[C@H](CCC(=O)O)NC(=O)CNC(=O)[C@H](Cc2c[nH]cn2)NC(=O)[C@H](CC(C)C)NC1=O ({CH2CO}-YHHYYRILHGELGCG-NH2; thioether N-14)
-- reply < 4.52

-- ask Quick check: pIC50 of CC(C)C[C@@H]1NC(=O)[C@H](Cc2c[nH]c3ccccc23)NC(=O)[C@H](Cc2c[nH]cn2)NC(=O)[C@H](CC(=O)O)NC(=O)[C@H](Cc2ccccc2)NC(=O)[C@H](Cc2c[nH]cn2)NC(=O)[C@H](Cc2ccc(O)cc2)NC(=O)CSC[C@@H](C(=O)NCC(N)=O)NC(=O)[C@H](CC(C)C)NC(=O)[C@H](CC(C)C)NC(=O)[C@H](Cc2c[nH]cn2)NC(=O)[C@H](C)NC1=O ({CH2CO}-YHFDHWLAHLLCG-NH2; thioether N-12) ?
-- reply < 4.52

-- ask # lookup: pIC50 of CC[C@H](C)[C@@H]1NC(=O)[C@H](CCCNC(=N)N)NC(=O)[C@H](Cc2ccc(O)cc2)NC(=O)[C@H](C)NC(=O)[C@H](Cc2c[nH]cn2)NC(=O)[C@H](Cc2c[nH]cn2)NC(=O)[C@H](Cc2ccc(O)cc2)NC(=O)CSC[C@@H](C(=O)NCC(N)=O)NC(=O)CNC(=O)[C@H](CC(C)C)NC(=O)[C@H](CCC(=O)O)NC(=O)CNC(=O)[C@H](Cc2ccc(O)cc2)NC(=O)[C@H](CC(C)C)NC1=O ({CH2CO}-YHHAYRILYGELGCG-NH2; thioether N-14)
-- reply < 4.52
